Target: T1, EsCas13d, nuclease-dead (Eubacterium siraeum, UniProt B0MS50, R295A;H300A;R849A;H854A)
T1 sequence: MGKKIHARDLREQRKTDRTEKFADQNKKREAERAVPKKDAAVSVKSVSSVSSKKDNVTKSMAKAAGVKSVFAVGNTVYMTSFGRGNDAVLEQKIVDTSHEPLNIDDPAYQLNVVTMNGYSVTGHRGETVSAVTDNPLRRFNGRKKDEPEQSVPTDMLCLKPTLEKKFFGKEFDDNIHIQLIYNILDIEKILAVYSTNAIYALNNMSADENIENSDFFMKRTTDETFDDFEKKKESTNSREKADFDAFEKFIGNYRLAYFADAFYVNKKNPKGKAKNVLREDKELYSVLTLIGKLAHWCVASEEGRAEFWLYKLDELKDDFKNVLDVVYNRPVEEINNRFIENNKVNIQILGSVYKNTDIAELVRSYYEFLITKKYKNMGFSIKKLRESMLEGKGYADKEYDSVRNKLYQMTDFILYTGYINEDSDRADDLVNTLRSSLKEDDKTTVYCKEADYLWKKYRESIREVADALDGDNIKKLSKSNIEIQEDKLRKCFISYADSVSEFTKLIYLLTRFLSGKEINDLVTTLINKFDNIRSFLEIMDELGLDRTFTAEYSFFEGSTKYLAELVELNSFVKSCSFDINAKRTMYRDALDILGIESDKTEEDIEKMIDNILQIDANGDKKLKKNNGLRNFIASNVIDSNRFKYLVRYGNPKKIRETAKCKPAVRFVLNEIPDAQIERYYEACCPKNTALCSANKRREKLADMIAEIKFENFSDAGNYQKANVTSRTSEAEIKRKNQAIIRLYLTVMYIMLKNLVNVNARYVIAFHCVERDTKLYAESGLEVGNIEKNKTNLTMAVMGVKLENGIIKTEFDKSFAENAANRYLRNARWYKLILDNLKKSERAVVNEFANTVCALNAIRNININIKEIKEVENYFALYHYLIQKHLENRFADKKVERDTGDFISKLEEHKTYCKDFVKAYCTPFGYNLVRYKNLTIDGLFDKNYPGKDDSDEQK
Experiment: crRNA (strand 1, pre-loaded); Mg2+; 40 mM Tris-HCl pH 7.5, 150 mM NaCl, 6 mM MgCl2, 1 mM DTT, 0.1% Tween-20, 0.2 mg/ml BSA; 25 C; 10 min per concentration, then washed
Details: tags: His6-TwinStrep-SUMO cleaved; N-terminal SNAP kept (SNAP-Surface 488); label: 3' end held by stalled T7 RNA polymerase
observable: Kd (nM)
Numbers only, in nM.

| binder | measure-unit | recorded-value |
| --- | --- | --- |
| target 2 MT 5'PFS GGA 3'PFS CGC (mixed) RNA 1: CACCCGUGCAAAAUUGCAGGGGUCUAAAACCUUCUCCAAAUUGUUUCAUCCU RNA 2: GGGAAUGGAUCCACAUCUACGAAUUCGGAAGGAUGAAACAAUUUGGAGAAGCGCAGAUCGGAAGAGCACACGU | nM | 10.5 |

Request: Bench note: what Kd did target 1 insU 3' of 5,insG 3' of 2 (mixed) RNA 1: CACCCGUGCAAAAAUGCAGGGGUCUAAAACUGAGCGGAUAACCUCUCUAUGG RNA 2: GGGAAUGGAUCCACAUCUACGAAUUCGUACCAUAGAGAGGUUAUCCGUCUCGACCGAGAUCGGAAGAGCACACGU show?
Response: 9.1
